From: paper PMC6849348

systemName: malate synthase (MS, GlcB) (Mycobacterium tuberculosis)
assay: SPR
measuredProperty: pKd
Please note pKd is a logarithmic value: minus log10 of concentration in mol/L. Answer with that number alone.

GGTGGGATGGGGGGGGGAGGGTAGGGTGTGCAAGTAGAGGGTC [MS6]; 9.55
GGACCAGGTGAGTGGATGCGGGTGCGGGTGGGGGTGAGGGGGGG [MS4]; 8.00

Using the record for GCAGAGAGAGAGAAAGTGAGAAGGGCGGGGGGGAGAGGGTGGGG [MS5] , report its pKd. 5.57

Given the entry GGGTTGTAAGAGGGAGCTGGGAGGGGTCGGGGGGGGGGGTGGC [MS20] , report its measured pKd. 6.04
